FYI, the data here is from patent US10047105B2.

tested on: S. aureus ATCC 13709; assay: MIC, antibacterial potency, S. aureus; assay type: cell-based; conditions: S. aureus (SA); in µg/mL

compound: CCc1[nH]c2nc(Oc3ccc4nccnc4c3)nc(N3CC4C(C3)C4(N)C(N)=O)c2c1Cl (stereo not drawn)
MIC, SA: <=0.5
//
compound: CCc1[nH]c2nc(Oc3cncc(OC)c3)nc(Oc3cncc(OC)c3)c2c1Br
MIC, SA: <=0.5
//
compound: CCc1[nH]c2nc(Sc3cc(C(=O)NOC)c4ncccc4c3)nc(N3CC[C@@H](N)C3)c2c1Cl
MIC, SA: <=0.5

* * *

test system: S. aureus ATCC 13709; test: MIC, antibacterial potency, S. aureus; format: cell-based; conditions: S. aureus (SA); in µg/mL

compound: CCc1[nH]c2nc(Oc3cccc(C#N)c3)nc(C(C)N3CCC(N)C3)c2c1Cl (stereo not shown)
MIC, SA: >64

compound: NC1CN(c2ncnc3cc(Sc4nc(N5CC[C@@H](N)C5)c5c(Cl)c(C6CC6)[nH]c5n4)ccc23)C1
MIC, SA: >64

compound: CCc1[nH]c2nc(Oc3cncnc3)nc(Oc3cncc(C#N)c3)c2c1Br
MIC, SA: <=0.5

compound: CCc1[nH]c2nc(Sc3cnc4cccnc4c3)nc(N3CC4CNC4C3)c2c1Cl.O=C(O)C(F)(F)F.O=C(O)C(F)(F)F (stereo not shown)
MIC, SA: <=0.5

compound: CCc1[nH]c2nc(Oc3cnc4c(c3)ncn4C)nc(N3CC[C@@H](N)C3)c2c1Cl
MIC, SA: >64

compound: CCc1[nH]c2nc(Oc3cncnc3)nc(Oc3cc(O)cc(C#N)c3)c2c1Cl
MIC, SA: <=0.5

compound: CCc1[nH]c2nc(Sc3ccc4cc5c([n+]([O-])c4c3)CCNC5)nc(N3CC4C(C3)C4(N)C(N)=O)c2c1Cl (stereo not shown)
MIC, SA: <=0.5
